All values here come from patent US20210388107A1.

molecular target: T1, human SIRPβ1v2, AVI-tagged, biotinylated, monomeric form (human, UniProt Q5TFQ8 30-371, biotinylated); test: SPR, captured monomeric antigen
T1 construct: also called huSIRPβ1v2
T1 sequence (Q5TFQ8 30-371): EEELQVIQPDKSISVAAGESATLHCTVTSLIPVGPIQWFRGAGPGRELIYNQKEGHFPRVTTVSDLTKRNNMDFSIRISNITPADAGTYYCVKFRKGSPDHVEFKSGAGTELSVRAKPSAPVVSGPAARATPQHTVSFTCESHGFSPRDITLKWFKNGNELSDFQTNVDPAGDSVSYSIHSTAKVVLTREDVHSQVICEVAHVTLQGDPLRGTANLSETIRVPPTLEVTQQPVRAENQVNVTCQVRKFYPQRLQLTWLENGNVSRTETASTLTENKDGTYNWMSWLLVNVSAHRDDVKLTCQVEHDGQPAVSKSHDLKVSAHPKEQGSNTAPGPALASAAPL
pKd: −log10 of the molar value.

# Binder, Inequality Operator, pKd
measured = [
    ("AB3-LALA (AB3 chicken-human chimeric IgG1-kappa, LALA) (antibody, V domains shown) VH: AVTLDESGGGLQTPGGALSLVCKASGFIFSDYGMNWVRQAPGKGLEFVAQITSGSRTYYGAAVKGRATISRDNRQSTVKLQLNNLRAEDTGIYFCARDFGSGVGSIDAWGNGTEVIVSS VL: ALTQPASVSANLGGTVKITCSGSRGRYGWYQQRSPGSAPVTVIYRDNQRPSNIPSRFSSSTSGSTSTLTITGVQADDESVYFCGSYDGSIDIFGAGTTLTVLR", ">", 11.00),
    ("AB25-LALA (AB25 humanized IgG1-kappa, LALA) (antibody, V domains shown) VH: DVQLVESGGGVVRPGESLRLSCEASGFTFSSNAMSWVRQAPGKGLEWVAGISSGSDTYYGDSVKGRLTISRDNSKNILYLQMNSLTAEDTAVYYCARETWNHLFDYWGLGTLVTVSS VL: SYELTQPPSVSVSPGQTARITCSGGSYSSYYYAWYQQKPGQAPVTLIYSDDKRPSNIPERFSGSSSGTTVTLTISGVQAEDEADYYCGGYDQSSYTNPFGGGTKLTVLR", ">", 11.00),
    ("29AM4-5-LALA (IgG1) (antibody, V domains shown, human IgG1 LALA, kappa; also called 29AM4-5huIgG1LALA) VH: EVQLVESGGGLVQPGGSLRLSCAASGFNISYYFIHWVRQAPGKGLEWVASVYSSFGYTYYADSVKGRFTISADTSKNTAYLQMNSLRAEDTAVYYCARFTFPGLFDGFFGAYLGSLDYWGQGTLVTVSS VL: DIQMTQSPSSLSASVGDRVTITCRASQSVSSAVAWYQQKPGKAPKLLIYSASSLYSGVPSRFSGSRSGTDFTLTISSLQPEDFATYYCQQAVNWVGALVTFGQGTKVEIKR", "=", 9.82),
    ("7H9-LALA (7H9 mouse-human chimeric IgG1-kappa, LALA) (antibody, V domains shown) VH: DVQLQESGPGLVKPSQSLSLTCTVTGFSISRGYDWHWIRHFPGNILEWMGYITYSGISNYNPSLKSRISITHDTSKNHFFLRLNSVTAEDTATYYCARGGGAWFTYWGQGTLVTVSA VL: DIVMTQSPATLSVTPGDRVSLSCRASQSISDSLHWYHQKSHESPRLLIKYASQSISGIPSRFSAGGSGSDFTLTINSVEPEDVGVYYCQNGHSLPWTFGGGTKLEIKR", "=", 9.40),
    ("1H9 humanized IgG1-kappa, HC-N297A (antibody, V domains shown) VH: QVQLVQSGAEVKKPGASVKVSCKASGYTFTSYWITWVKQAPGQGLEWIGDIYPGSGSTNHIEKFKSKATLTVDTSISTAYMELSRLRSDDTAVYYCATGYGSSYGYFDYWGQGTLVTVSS VL: DIQMTQSPSSLSASVGDRVTITCRASENIYSYLAWYQQKPGKAPKLLIYTAKTLAEGVPSRFSGSGSGTDFTLTISSLQPEDFATYYCQHQYGPPFTFGQGTKLEIKR", "=", 10.62),
    ("humanized anti-SIRPα antibody 6 (antibody, human IgG1, kappa, L234A L235A, V domains shown, human IgG1 LALA, kappa; also called mAb 6) VH: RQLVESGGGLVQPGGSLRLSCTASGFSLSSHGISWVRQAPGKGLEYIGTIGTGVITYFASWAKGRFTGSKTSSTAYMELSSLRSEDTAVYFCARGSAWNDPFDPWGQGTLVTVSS VL: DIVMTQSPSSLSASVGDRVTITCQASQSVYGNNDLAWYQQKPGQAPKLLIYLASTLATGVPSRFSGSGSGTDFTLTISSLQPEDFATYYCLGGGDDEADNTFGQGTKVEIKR", "=", 8.49),
    ("HEFLB (humanized IgG4) (antibody, V domains shown, humanized IgG4 of WO 2017/178653; also called humanized HEFLB) VH: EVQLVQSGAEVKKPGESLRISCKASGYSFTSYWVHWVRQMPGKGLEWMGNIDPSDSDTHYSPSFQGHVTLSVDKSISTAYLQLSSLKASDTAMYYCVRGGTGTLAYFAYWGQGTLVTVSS VL: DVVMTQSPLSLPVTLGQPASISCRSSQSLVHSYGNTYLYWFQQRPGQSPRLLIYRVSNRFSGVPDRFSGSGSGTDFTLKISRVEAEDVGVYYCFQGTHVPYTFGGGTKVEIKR", "=", 9.46),
    ("AB119-LALA (AB119 human IgG1-kappa, LALA) (antibody, V domains shown) VH: VQLLESGGGVVQPGGSLRLSCAASGFSFSNFAMTWVRQAPGEGLEWVSTIGSGDTYYADSVKGRFTISRDNSKNTLYLQMNSLRAEDTAVYYCAKDSTVSWSGDFFDYWGLGTLVTVSS VL: EIVLTQSPATLSVSPGERATFSCRASQNVKNDLAWYQQRPGQAPRLLIYAARIRETGIPERFSGSGSGTEFTLTITSLQSEDFAVYYCQQYYDWPPFTFGGGTKVEIKR", "=", 10.89),
    ("AB115-LALA (AB115 human IgG1-kappa, LALA) (antibody, V domains shown) VH: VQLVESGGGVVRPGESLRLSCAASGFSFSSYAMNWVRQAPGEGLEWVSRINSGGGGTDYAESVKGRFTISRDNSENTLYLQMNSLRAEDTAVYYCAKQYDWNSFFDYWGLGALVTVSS VL: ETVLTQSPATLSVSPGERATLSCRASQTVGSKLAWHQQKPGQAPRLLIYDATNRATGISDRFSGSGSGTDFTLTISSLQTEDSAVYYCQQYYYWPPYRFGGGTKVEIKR", ">", 11.00),
    ("3F9-LALA (3F9 mouse-human chimeric IgG1-kappa, LALA) (antibody, V domains shown) VH: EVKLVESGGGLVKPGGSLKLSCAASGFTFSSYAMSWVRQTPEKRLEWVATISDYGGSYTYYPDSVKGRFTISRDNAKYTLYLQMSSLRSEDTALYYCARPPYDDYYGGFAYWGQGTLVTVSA VL: DIVLTQSPASLAVSLGQRATISCRASKSVSSSGYSYMHWYQQKPGQPPKLLIYLASNLESGVPARFSGSGSGTDFTLNIHPVEEEDAATYYCQHNRELPCTFGGGTKLEIKR", "=", 9.42),
]
